Listing of entries alongside the reported CC50.
- Test system: GS4.1 cells
- Protocol: Cytotoxicity evaluation in GS4.1 cells (Cell Titer 96 AQueous One)
- Type: cell-based, human
- Condition: cellular viability

Compound	CC50
COC(=O)N[C@H](C(=O)N1CCC[C@H]1c1ncc(-c2ccc(-c3cn4cc(-c5cnc(C6CCCN6C(=O)[C@@H](NC(=O)OC(C)(C)C)c6ccccc6)[nH]5)nc4s3)cc2)[nH]1)C(C)C (some centres unmarked)	> 75 µM
COC(=O)N[C@H](C(=O)N1CCC[C@H]1c1ncc(-c2ccc(-c3cn4cc(NC(=O)[C@@H]5CCCN5)nc4s3)cc2)[nH]1)C(C)C	10 to 75 µM
COC(=O)N[C@H](C(=O)N1CCCC1c1cc(-c2ccc(-c3csc4c(-c5ccc(-c6cnc(C7CCCN7C(=O)[C@@H](NC(=O)OC)C(C)C)[nH]6)cc5)csc34)cc2)[nH]n1)C(C)C (some centres unmarked)	> 75 µM
COC(=O)N[C@H](C(=O)N1CCCC1c1nc(-c2ccc(-c3sc4cc(-c5ccc(-c6cnc([C@@H]7CCCN7C(=O)[C@@H](NC(=O)OC)C(C)C)[nH]6)cc5)sc4c3-c3ccc(-c4cnc(C5CCCN5C(=O)[C@@H](NC(=O)OC)C(C)C)[nH]4)cc3)cc2)c[nH]1)C(C)C (some centres unmarked)	10 to 75 µM

Let us move to another entry and its CC50.
Incoming: Query for GS4.1 cells: what CC50 does the record show for `COC(=O)N[C@H](C(=O)N1CCC[C@H]1c1ncc(-c2ccc(-c3cn4cc(NC(=O)CNC(=O)[C@H](NC(=O)OC(C)(C)C)c5ccccc5)nc4s3)cc2)[nH]1)C(C)C` ?
Outgoing: > 75 µM
